Values compiled from patent US20210277110A1.

- study-system: T1, Full length human PD1 (huPD1) on cells (human, UniProt Q15116 25-288)
- T1 construct: on T cells of human donors in the MLR and CMV assays (functional); also called PD-1 on Jurkat cells
- T1 sequence (Q15116 25-288 limits assumed): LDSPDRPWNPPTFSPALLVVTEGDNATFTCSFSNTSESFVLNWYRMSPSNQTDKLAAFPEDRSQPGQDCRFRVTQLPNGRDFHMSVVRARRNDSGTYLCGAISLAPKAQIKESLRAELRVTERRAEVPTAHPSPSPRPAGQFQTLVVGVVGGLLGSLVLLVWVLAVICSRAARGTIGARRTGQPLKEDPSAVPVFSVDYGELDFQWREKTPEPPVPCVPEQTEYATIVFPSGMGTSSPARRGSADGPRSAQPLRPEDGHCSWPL
- measurement-description: flow cytometry, PHA-stimulated Jurkat cells
quantity-measured: EC50 (µg/mL)
Field: numeric (µg/mL). Do not append units.

PD1B175 (antibody, V domains shown, Tested as IgG2sigma; also called PD1H163/PH9L3) VH: QVQLVQSGAEVKKPGSSVKVSCKASGGTFKSYVIHWVRQAPGQGLEWMGGIIPIFGTANYAQKFQGRVTITADESTSTAYMELSSLRSEDTAVYYCARGYVRATGMLDYWGQGTLVTVSS VL: EIVLTQSPATLSLSPGERATLSCRASQSVSSYLAWYQQKPGQAPRLLIYDASNRATGIPARFSGSGSGTDFTLTISSLEPEDFAVYYCQQRSNWPLTFGQGTKVEIK; 0.09
PD1B149 (antibody, human IgG2, kappa, V domains shown, IgG2sigma/kappa; VH 41, VL 50; also called PD1H24/PD1L128) VH: QVQLVQSGAEVKKPGSSVKVSCKASGGTFSSYAISWVRQAPGQGLEWMGGIIPIFGTANYAQKFQGRVTITADESTSTAYMELSSLRSEDTAVYYCARPGLAAAYDTGNLDYWGQGTLVTVSS VL: EIVLTQSPATLSLSPGERATLSCRASQSVRNYLAWYQQKPGQAPRLLIHDASNRATGIPARFSGSGSGTDFTLTISSLEPEDFAVYYCQQRNYWPLTFGQGTKVEIKR; 0.08

// field: EC50; key: PD1B162 (antibody, human IgG2, kappa, V domains shown, IgG2sigma/kappa; VH 42, VL 52; also called PD1H131/PD1L67) VH: QVQLVQSGAEVKKPGSSVKVSCKASGGTFSSYAISWVRQAPGQGLEWMGGIIPIFDTANYAQKFQGRVTITADESTSTAYMELSSLRSEDTAVYYCARPGLAAAYDTGNLDYWGQGTLVTVSS VL: EIVLTQSPATLSLSPGERATLSCRASQSVDSYLAWYQQKPGQAPRLLIYDASNRATGIPARFSGSGSGTDFTLTISSLEPEDFAVYYCQQREYWPLTFGQGTKVEIKR ; value = 0.05
